Quick reference for polymerase ribozyme fitness (log ratio) among some variants
B1: TPR t1 (parent)
chain: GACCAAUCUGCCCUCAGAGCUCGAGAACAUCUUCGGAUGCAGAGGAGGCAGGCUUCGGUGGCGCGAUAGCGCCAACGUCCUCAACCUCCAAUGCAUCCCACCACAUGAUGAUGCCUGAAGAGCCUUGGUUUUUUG

# Variants of: B1
# Method Description: polymerase ribozyme fitness, log enrichment relative to wild type (log ratio); higher = more active; in vitro selection for triplet polymerase activity

Mutation Id: C13U G25C C62G C82A C86A C102U U109C
polymerase ribozyme fitness (log ratio): -7.42
//
Mutation Id: A6U G113A
polymerase ribozyme fitness (log ratio): -1.07
//
Mutation Id: C82G C99A C101U A119G
polymerase ribozyme fitness (log ratio): -6.25
//
Mutation Id: A84C U87A U96A
polymerase ribozyme fitness (log ratio): -1.65
//
Mutation Id: C3G G19A C20G C88G U112G C115U
polymerase ribozyme fitness (log ratio): -5.61
//
Mutation Id: C8U A18U C20A A95U G117A
polymerase ribozyme fitness (log ratio): -3.83
//
Mutation Id: U9G G48U U87G C115G
polymerase ribozyme fitness (log ratio): 0.077
//
Mutation Id: U9A C73U
polymerase ribozyme fitness (log ratio): 0.98
//
Mutation Id: C12G C70G
polymerase ribozyme fitness (log ratio): -2.83
//
Mutation Id: A2U G47A C123A
polymerase ribozyme fitness (log ratio): -2.56
//
Mutation Id: C8G C49A U92A C123U
polymerase ribozyme fitness (log ratio): -1.03
//
Mutation Id: C8G A46U G63C
polymerase ribozyme fitness (log ratio): -0.288
//
Mutation Id: C3U C8A G25A C31G C70G U92A C94A C98G C99G G117U
polymerase ribozyme fitness (log ratio): -6.98
//
Mutation Id: C8A C20U G60A C98U
polymerase ribozyme fitness (log ratio): -0.889
//
Mutation Id: C22U G120C U130G
polymerase ribozyme fitness (log ratio): -4.69
//
Mutation Id: G42U G61U C123A
polymerase ribozyme fitness (log ratio): -0.3
//
Mutation Id: G42U A46C C53A U92A A95C C104G U112A
polymerase ribozyme fitness (log ratio): -7.25
//
Mutation Id: C85U U132A
polymerase ribozyme fitness (log ratio): -1.56
//
Mutation Id: G39A A43U
polymerase ribozyme fitness (log ratio): -1.78
//
Mutation Id: C13U C89A
polymerase ribozyme fitness (log ratio): -1.08
//
Mutation Id: C12A G17U C20A G42A G45U A90G C123A
polymerase ribozyme fitness (log ratio): -4.53
//
Mutation Id: A121U U130G
polymerase ribozyme fitness (log ratio): 1.98
